- TEST DESCRIPTION: Neurotoxicity in ip dosed CF-1 albino mouse at 30 to 300 mg/kg, ip after 0.5 to 4 hrs
- Assay type: toxicity, organism-based
- Design: route intraperitoneal
- CONDITION DESCRIPTION: CF-1, mouse, in vivo
Would you kindly list TD50 for each of these compounds?

Determine from records and report TD50 for CC1(c2ccccc2)CC(=O)N(CN2CCN(c3ccc(Cl)c(Cl)c3)CC2)C1=O (stereo not drawn) > 500 mg/kg

Indicate the recorded TD50 value for this compound: CC1(c2ccccc2)CC(=O)N(CN2CCN(c3cccc(Cl)c3)CC2)C1=O (stereo not drawn) 496 mg/kg

Read the entry CC1(c2ccccc2)CC(=O)N(CN2CCN(c3ccc(F)cc3)CC2)C1=O (stereo not drawn) and write its reported TD50. > 500 mg/kg

This collection of values is drawn from ChEMBL document CHEMBL2417397.
